target: JAK1 (Homo sapiens, UniProt P23458); assay: Cellular JAK1 activity assay: IL-6-stimulated STAT3 phosphorylation in TF-1 cells; format: cell-based; parameters: endogenous in cells; host or cells: TF-1 cells (ATCC); conditions: IL-6 (30 ng/mL), pSTAT3, read-out: IC50 Cell JAK1
Sequence (P23458 whole entry): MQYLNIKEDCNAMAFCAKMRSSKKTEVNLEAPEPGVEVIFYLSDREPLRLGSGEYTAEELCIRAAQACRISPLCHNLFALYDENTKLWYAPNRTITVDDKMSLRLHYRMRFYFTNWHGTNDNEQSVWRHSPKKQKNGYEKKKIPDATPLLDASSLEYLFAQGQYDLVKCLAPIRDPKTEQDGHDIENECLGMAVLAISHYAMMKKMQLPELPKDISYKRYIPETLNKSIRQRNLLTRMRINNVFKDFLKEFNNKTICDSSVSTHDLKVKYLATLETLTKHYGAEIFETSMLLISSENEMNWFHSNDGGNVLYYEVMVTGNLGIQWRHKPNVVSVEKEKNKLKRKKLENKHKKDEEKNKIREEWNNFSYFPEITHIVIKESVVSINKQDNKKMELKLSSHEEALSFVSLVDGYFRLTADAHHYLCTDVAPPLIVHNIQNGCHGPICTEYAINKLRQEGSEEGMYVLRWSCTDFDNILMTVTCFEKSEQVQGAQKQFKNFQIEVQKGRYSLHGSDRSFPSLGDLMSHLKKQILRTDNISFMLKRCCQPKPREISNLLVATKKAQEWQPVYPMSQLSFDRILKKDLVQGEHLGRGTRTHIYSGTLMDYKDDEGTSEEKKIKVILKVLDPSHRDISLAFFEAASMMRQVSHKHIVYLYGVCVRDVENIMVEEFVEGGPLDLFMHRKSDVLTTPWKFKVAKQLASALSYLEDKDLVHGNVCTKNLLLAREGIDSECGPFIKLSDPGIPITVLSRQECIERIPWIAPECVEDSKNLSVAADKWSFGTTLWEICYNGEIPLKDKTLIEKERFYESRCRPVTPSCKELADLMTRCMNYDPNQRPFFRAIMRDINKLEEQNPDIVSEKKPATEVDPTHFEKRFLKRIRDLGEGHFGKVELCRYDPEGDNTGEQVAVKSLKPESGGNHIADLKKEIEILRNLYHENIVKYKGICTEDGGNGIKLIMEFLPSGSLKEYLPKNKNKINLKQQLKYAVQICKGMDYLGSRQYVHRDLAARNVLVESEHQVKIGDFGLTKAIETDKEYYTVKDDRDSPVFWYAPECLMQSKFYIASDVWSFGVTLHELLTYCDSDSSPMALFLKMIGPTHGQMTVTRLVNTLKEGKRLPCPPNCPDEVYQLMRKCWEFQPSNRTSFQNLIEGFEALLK
Measure Name: IC50

Recorded IC50, per entry:
Compound	Measured Value
CCC(C(=O)Nc1nccc2c(-c3nc(Nc4cccc(S(C)(=O)=O)c4F)ncc3C)c[nH]c12)N1CCN(C)CC1 (stereo not drawn) [Example 19]	100 to 1000 nM
Cc1cnc(Nc2cccc(S(C)(=O)=O)c2F)nc1-c1c[nH]c2c(NC(=O)NC(C)C)ncnc12	> 1000 nM

Alright, here's another compound for you.
Incoming: Provide value of IC50 for this record tested with JAK1 (Homo sapiens, UniProt P23458): CCC(C(=O)Nc1nccc2c(-c3nc(Nc4cn(C)nc4OC)ncc3C)c[nH]c12)N1CCC(N(C)C)CC1 (stereo not drawn)
Outgoing: 100 to 1000 nM

====

molecular target: JAK1 (Homo sapiens, UniProt P23458); test: In vitro JAK1 kinase activity assay (HTRF kinEASE TK); assay type: biochemical; parameters: purchased Thermo Fisher; settings: 1.1 μM ATP, 60 minutes, room temperature; read-out: IC50 JAK1 (enzyme activity assay)
pIC50: −log10 of the molar value.
This listing pairs compounds with measured pIC50.

Compound	System Under Test	Measured Value
CCC(C(=O)Nc1nccc2c(-c3nc(Nc4cccc(S(C)(=O)=O)c4F)ncc3C)c[nH]c12)N1CC2(CCN(C)CC2)C1 (stereo not drawn)	JAK1 (Homo sapiens, UniProt P23458)	7.30 to 8.30
CCC(C(=O)Nc1ncnc2c(-c3nc(Nc4cccc(S(C)(=O)=O)c4F)ncc3C)c[nH]c12)N1CCN(C)CC1 (stereo not drawn)	JAK1 (Homo sapiens, UniProt P23458)	< 7.30

Alright, here's another compound for you.
Incoming: Can you look up the measured pIC50 of COc1nn(C)cc1Nc1nccc(-c2c[nH]c3c(NC(=O)[C@@H](C)N4CCN(C)CC4)nccc23)n1 for me?
Outgoing: < 7.30

====

This listing pairs molecules with measured IC50.
target: JAK1 (Homo sapiens, UniProt P23458); experiment: In vitro JAK1 kinase activity assay (HTRF kinEASE TK); format: biochemical; set-up: purchased Thermo Fisher; conditions: 1.1 μM ATP, 60 minutes, room temperature; read-out: IC50 JAK1 (enzyme activity assay)

Recorded IC50, per entry:
Molecule	System Under Test	IC50
COc1nn(C)cc1Nc1ncc(C)c(-c2c[nH]c3c(Nc4cn(C)nc4OC)nccc23)n1	JAK1 (Homo sapiens, UniProt P23458)	5 to 50 nM
CC[C@@H](C(=O)Nc1nccc2c(-c3nc(Nc4cn(C)nc4OC)ncc3C)c[nH]c12)N1CCN(C)CC1	JAK1 (Homo sapiens, UniProt P23458)	5 to 50 nM
CCC(C(=O)Nc1nccc2c(-c3nc(Nc4cccc(S(C)(=O)=O)c4F)ncc3C)c[nH]c12)N1CCN(C)CC1 (centres unmarked) [Example 19]	JAK1 (Homo sapiens, UniProt P23458)	< 5 nM
COc1nn(C)cc1Nc1ncc(C)c(-c2c[nH]c3c(NC(=O)C(C(C)C)N4CCN(C)CC4)nccc23)n1 (centres unmarked)	JAK1 (Homo sapiens, UniProt P23458)	5 to 50 nM
CCC(C(=O)Nc1nccc2c(-c3nc(Nc4cccc(S(C)(=O)=O)c4F)ncc3F)c[nH]c12)N1CCN(C)CC1 (centres unmarked)	JAK1 (Homo sapiens, UniProt P23458)	< 5 nM

Incoming: Provide value of IC50 for this record tested with JAK1 (Homo sapiens, UniProt P23458): CCC(C(=O)Nc1nccc2c(-c3nc(Nc4cn(C)nc4OC)ncc3F)c[nH]c12)N1CCN(C)CC1 (centres unmarked)
Outgoing: < 5 nM

Incoming: Provide value of IC50 for this record tested with JAK1 (Homo sapiens, UniProt P23458): COc1nn(C)cc1Nc1ncc(C)c(-c2c[nH]c3c(NC(=O)C(C)(C)N4CCN(C)CC4)nccc23)n1
Outgoing: 5 to 50 nM

Incoming: Provide value of IC50 for this record tested with JAK1 (Homo sapiens, UniProt P23458): Cc1cnc(Nc2cccc(S(C)(=O)=O)c2F)nc1-c1c[nH]c2c(NC(=O)NC(C)C)nccc12
Outgoing: 5 to 50 nM

====

target: JAK1 (Homo sapiens, UniProt P23458); test: In vitro JAK1 kinase activity assay (HTRF kinEASE TK); type: biochemical; design: purchased Thermo Fisher; details: 1.1 μM ATP, 60 minutes, room temperature; read-out: IC50 JAK1 (enzyme activity assay)
pIC50: −log10 of the molar value.
Measure Name: pIC50

Compound	pIC50
CCC(C(=O)Nc1nccc2c(-c3nc(Nc4cccc(S(C)(=O)=O)c4F)ncc3C)c[nH]c12)N1CC2CCC(C1)N2C (stereo not shown) [Example 23]	7.30 to 8.30
CCC(C(=O)Nc1nccc2c(-c3nc(Nc4cn(C)nc4OC)ncc3C)c[nH]c12)N1CCC(N(C)C)CC1 (stereo not shown) [Example 9]	7.30 to 8.30
CCC(C(=O)Nc1nccc2c(-c3nc(Nc4cn(C)nc4OC)ncc3C)c[nH]c12)N1CCC(O)C1 (stereo not shown) [Example 8]	7.30 to 8.30

Incoming: Can you look up the measured pIC50 of COc1nn(C)cc1Nc1ncc(C)c(-c2c[nH]c3c(NC(=O)[C@@H](C)N4CCOCC4)nccc23)n1 [Example 7] for me?
Outgoing: 7.30 to 8.30

Incoming: Can you look up the measured pIC50 of CC[C@@H](C(=O)Nc1nccc2c(-c3nc(Nc4cccc(S(C)(=O)=O)c4F)ncc3C)c[nH]c12)N1CC2CCC(C1)N2C [Example 26] for me?
Outgoing: < 7.30

Incoming: Can you look up the measured pIC50 of CC[C@H](C(=O)Nc1nccc2c(-c3nc(Nc4cn(C)nc4OC)ncc3C)c[nH]c12)N1CCN(C)CC1 [Example 4] for me?
Outgoing: > 8.30

Incoming: Can you look up the measured pIC50 of CC[C@H](C(=O)Nc1nccc2c(-c3nc(Nc4cccc(S(C)(=O)=O)c4F)ncc3C)c[nH]c12)N1CC2CCC(C1)N2C [Example 25] for me?
Outgoing: > 8.30

====

This listing pairs compounds with measured pIC50.
biological target: JAK2 (Homo sapiens, UniProt O60674); assay: In vitro JAK2 kinase activity assay (HTRF kinEASE TK); format: biochemical; set-up: purchased Carna Biosciences; conditions: 2.7 μM ATP, 25 minutes, room temperature; read-out: IC50 JAK2 (enzyme activity assay)
Sequence (O60674 whole entry): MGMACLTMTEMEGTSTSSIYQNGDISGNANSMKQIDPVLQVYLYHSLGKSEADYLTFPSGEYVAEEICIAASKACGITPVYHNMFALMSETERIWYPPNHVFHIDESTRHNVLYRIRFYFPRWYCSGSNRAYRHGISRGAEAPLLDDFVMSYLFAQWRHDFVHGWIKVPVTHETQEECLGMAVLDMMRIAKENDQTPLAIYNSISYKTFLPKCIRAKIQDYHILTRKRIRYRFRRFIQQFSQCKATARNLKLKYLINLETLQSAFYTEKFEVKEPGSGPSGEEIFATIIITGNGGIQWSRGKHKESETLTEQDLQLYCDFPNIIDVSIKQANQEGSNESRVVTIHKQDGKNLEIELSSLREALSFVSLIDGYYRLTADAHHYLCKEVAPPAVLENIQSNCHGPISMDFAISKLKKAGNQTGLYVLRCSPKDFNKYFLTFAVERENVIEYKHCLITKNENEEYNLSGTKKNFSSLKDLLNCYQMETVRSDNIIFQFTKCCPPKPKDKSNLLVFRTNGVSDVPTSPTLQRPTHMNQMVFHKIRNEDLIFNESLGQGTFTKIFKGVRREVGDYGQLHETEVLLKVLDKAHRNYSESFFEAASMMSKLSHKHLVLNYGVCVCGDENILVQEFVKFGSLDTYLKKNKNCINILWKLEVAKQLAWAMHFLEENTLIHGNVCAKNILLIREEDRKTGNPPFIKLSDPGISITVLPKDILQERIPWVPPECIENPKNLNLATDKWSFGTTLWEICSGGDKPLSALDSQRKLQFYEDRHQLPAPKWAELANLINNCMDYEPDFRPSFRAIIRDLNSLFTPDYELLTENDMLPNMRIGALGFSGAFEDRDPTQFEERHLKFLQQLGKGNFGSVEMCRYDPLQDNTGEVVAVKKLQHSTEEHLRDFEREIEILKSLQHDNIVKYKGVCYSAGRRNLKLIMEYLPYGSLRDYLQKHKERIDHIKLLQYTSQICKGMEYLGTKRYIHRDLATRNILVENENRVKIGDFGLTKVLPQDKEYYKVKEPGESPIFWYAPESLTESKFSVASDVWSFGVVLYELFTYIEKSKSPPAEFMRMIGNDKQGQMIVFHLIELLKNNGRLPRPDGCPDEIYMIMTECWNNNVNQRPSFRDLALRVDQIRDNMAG
pIC50: −log10 of the molar value.

Recorded pIC50, per entry:
Compound	Measure Name	Measured Value
CCC(C(=O)Nc1nccc2c(-c3nc(Nc4cccc(S(C)(=O)=O)c4F)ncc3F)c[nH]c12)N1CCN(C)CC1 (stereo not shown)	pIC50	5.00 to 7.00
CCC(C(=O)Nc1nccc2c(-c3nc(Nc4cn(C)nc4OC)ncc3C)c[nH]c12)N1CCC(N(C)C)CC1 (stereo not shown)	pIC50	> 7.00
CCC(C(=O)Nc1nccc2c(-c3nc(Nc4cccc(S(C)(=O)=O)c4F)ncc3C)c[nH]c12)N1CC2CCC(C1)N2C (stereo not shown)	pIC50	5.00 to 7.00
COc1nn(C)cc1Nc1ncc(C)c(-c2c[nH]c3c(NC(N)=O)nccc23)n1	pIC50	> 7.00
COc1nn(C)cc1Nc1ncc(C)c(-c2c[nH]c3c(NC(=O)[C@@H](C)N4CCOCC4)nccc23)n1	pIC50	> 7.00
CCC(C(=O)Nc1nccc2c(-c3nc(Nc4cn(C)nc4OC)ncc3C)c[nH]c12)N1CCN(C)CC1 (stereo not shown)	pIC50	> 7.00

Alright, here's another compound for you.
Incoming: Can you look up the measured pIC50 of CC[C@H](C(=O)Nc1nccc2c(-c3nc(Nc4cn(C)nc4OC)ncc3C)c[nH]c12)N1CCN(C)CC1 for me?
Outgoing: > 7.00

====

This listing pairs compounds with measured IC50.
target: JAK2 (Homo sapiens); assay: In vitro JAK2 kinase activity assay (HTRF kinEASE TK); type: biochemical; set-up: purchased Carna Biosciences; details: 2.7 μM ATP, 25 minutes, room temperature; read-out: IC50 JAK2 (enzyme activity assay)

Incoming: Can you look up the measured IC50 of CCC(C(=O)Nc1nccc2c(-c3nc(Nc4cccc(S(C)(=O)=O)c4F)ncc3C)c[nH]c12)N1CCN(C)CC1 (stereo not shown) [Example 19] for me?
Outgoing: 100 to 10000 nM

Incoming: Can you look up the measured IC50 of CCC(C(=O)Nc1nccc2c(-c3nc(Nc4cn(C)nc4OC)ncc3C)c[nH]c12)N1CC(C)N(C)C(C)C1 (stereo not shown) for me?
Outgoing: 100 to 10000 nM

Incoming: Can you look up the measured IC50 of CC[C@@H](C(=O)Nc1nccc2c(-c3nc(Nc4cccc(S(C)(=O)=O)c4F)ncc3C)c[nH]c12)N1CC2CCC(C1)N2C for me?
Outgoing: 100 to 10000 nM

Incoming: Can you look up the measured IC50 of CCC(C(=O)Nc1nccc2c(-c3nc(Nc4cccc(S(C)(=O)=O)c4F)ncc3C)c[nH]c12)N1CCN(C)CC1 (stereo in doubt) [Example 21] for me?
Outgoing: 100 to 10000 nM

Incoming: Can you look up the measured IC50 of CCC(C(=O)Nc1nccc2c(-c3nc(Nc4cn(C)nc4OC)ncc3C)c[nH]c12)N1CCC(O)C1 (stereo not shown) for me?
Outgoing: < 100 nM

Incoming: Can you look up the measured IC50 of CCC(C(=O)Nc1nccc2c(-c3nc(Nc4cn(C)nc4OC)ncc3F)c[nH]c12)N1CCN(C)CC1 (stereo not shown) for me?
Outgoing: 100 to 10000 nM

Incoming: Can you look up the measured IC50 of CC[C@H](C(=O)Nc1nccc2c(-c3nc(Nc4cccc(S(C)(=O)=O)c4F)ncc3C)c[nH]c12)N1CC2CCC(C1)N2C for me?
Outgoing: < 100 nM
